The entries below are paired with their reported growth.
# System: TK-10 renal
# protocolText: NCI-60 one-dose screen, 48 h (100 = growth as untreated, 0 = no growth, -100 = all killed)
# reportedConditions: 10 µM unless noted
The panel holds about 83,000 compounds, 20% with a hit somewhere; the sample as a whole holds those more often. Calls of active or inactive are those of the source. The calls were made as follows: active = growth percent below 10; inactive = the rest.

Known results for compounds:
{"columns": ["compound", "readoutType", "result"],
 "data": [
  ["O=CCCCC(O)C=O (stereo not drawn)", "growth", "104% (inactive)"],
  ["O=C(CN1C=NC2C(N3CCOCC3)=NC=NC21)c1cccc2ccccc12 (stereo not drawn)", "growth", "130% (inactive)"]
]}

Then this compound:
GET /values?readout=growth&item= `CC(=O)c1ccc(Cc2ccc(C(C)=O)s2)s1`
94.9% (inactive)

---

# Tested on: OVCAR-4 ovarian
# protocolText: NCI-60 one-dose screen, 48 h
# reportedConditions: 10 µM unless noted
The panel holds about 83,000 compounds, 20% with a hit somewhere; the sample as a whole holds those more often. Calls of active or inactive are those of the source. The calls were made as follows: active = growth percent below 10; inactive = the rest.
Write down one outcome, taken from active, inactive

Which outcome was assigned to `CN1CCN(Cc2ccc(C(=O)Nc3cncc(C#Cc4cnc5cccnn45)c3)cc2C(F)(F)F)CC1` in this test?
inactive

---

# Tested on: SK-MEL-2 melanoma
# protocolText: NCI-60 one-dose screen, 48 h (100 = growth as untreated, 0 = no growth, -100 = all killed)
# reportedConditions: 10 µM unless noted
The panel holds about 83,000 compounds, 20% with a hit somewhere; the sample as a whole holds those more often.
Reported growth is given for each of the following compounds.
I only need the number, in %, no unit after it.

Any idea what its growth is? The compound is `Cn1c(=O)n(C)c2cc(CNCCNc3ccnc4cc(Cl)ccc34)ccc21`
65.7

---

# Tested on: CCRF-CEM leukemia
# protocolText: NCI-60 one-dose screen, 48 h (100 = growth as untreated, 0 = no growth, -100 = all killed)
# reportedConditions: 10 µM unless noted
About 83,000 compounds went through this panel and 20% of them were active in at least one assay; those are over-represented in the sample as a whole. Activity calls are given as the source filed them. How the source made its calls: active means growth percent below 10; inactive means the rest.
Attribute: growth

Examples from the recorded data:
{"columns": ["compound", "tgt", "result"],
 "data": [
  ["Cc1nc(Nc2ccccn2)sc1C(=O)/C=C/c1ccc(Cl)cc1", "CCRF-CEM leukemia", "17.1% (inactive)"],
  ["Oc1c(CN2CCN(c3ccccc3F)CC2)cc(Br)c2cccnc12", "CCRF-CEM leukemia", "1.46% (active)"],
  ["Oc1c(C(Nc2ccccn2)c2cccc(Oc3ccccc3)c2)ccc2cccnc12 (stereo not given)", "CCRF-CEM leukemia", "-59% (active)"]
]}

Provide value of growth for this record tested with CCRF-CEM leukemia: `O=NN(Cc1cccnc1)C(=O)NC1CCCCC1`
102% (inactive)

For COc1ccc(C2NCCc3c2[nH]c2ccccc32)cc1CN1CCN(c2ccc(F)cc2)CC1 (stereo not given) then?
16.3% (inactive)

---

# Tested on: NCI-H322M lung
# protocolText: NCI-60 one-dose screen, 48 h (100 = growth as untreated, 0 = no growth, -100 = all killed)
# reportedConditions: 10 µM unless noted
About 83,000 compounds went through this panel and 20% of them were active in at least one assay; those are over-represented in the sample as a whole.
Overview of reported growth across a group of compounds:
Just the number please, in %, no unit attached.

{"columns": ["structureAsSmiles", "growth / %"],
 "data": [
  ["COc1cc2nc(NC3CCC3)nc(NC3CCN(C(C)C)CC3)c2cc1OC", 89.2],
  ["O=C(Nc1ccc(N2CCNCC2)cn1)c1[nH]ncc1Nc1ncnc2sccc12", 59.1],
  ["Nc1nonc1-n1nncc1-c1cccnc1", 101]
]}

// moving on: another record for growth
# get_value(readout='growth', item= `O=c1oc2ccc(I)cc2c(=O)n1-c1ccc(Cl)cc1F` )
5.32

---

# Test system: MDA-MB-435 melanoma
# protocolText: NCI-60 one-dose screen, 48 h (100 = growth as untreated, 0 = no growth, -100 = all killed)
# reportedConditions: 10 µM unless noted
About 83,000 compounds went through this panel and 20% of them were active in at least one assay; those are over-represented in the sample as a whole.
Quick reference for growth among some compounds
Give a bare numeral; the unit % is implied.

{"columns": ["compound", "readoutType", "quantitativeReadout"],
 "data": [
  ["COc1ccc(C2NCCc3c2[nH]c2ccccc32)cc1CN1CCN(c2ccc(F)cc2)CC1 (stereo unspecified)", "growth", 38.2],
  ["CCOc1cc(Cl)c(C(C)NC(=O)c2cccc(OC)c2)cc1OCC (stereo unspecified)", "growth", -28.6],
  ["CN1C(=O)N(C)C2Nn3c(s/c(=C4\\C(=O)N(CCc5ccccc5)c5ccccc54)c3=O)=NC21 (stereo unspecified)", "growth", 5.64],
  ["O=c1cc(NC2CCN(CCCc3ccccc3)CC2)c2cc(Cl)ccc2o1", "growth", -8.02]
]}

Observed growth on MDA-MB-435 melanoma for `COc1cc2nc(-c3cccc4cccnc34)nc(NC3CCN(Cc4ccccc4)CC3)c2cc1OC` , please.
-93.3

Moving on to the next compound: `Cc1nc(Nc2cn[nH]c2C(=O)Nc2ccc(CN3CCN(C)CC3)cc2)c2ccsc2n1`
87.1

---

// reported growth for each item listed
# System: CAKI-1 renal
# protocolText: NCI-60 one-dose screen, 48 h (100 = growth as untreated, 0 = no growth, -100 = all killed)
# reportedConditions: 10 µM unless noted
The panel holds about 83,000 compounds, 20% with a hit somewhere; the sample as a whole holds those more often.
Give a bare numeral; the unit % is implied.

{"columns": ["compound", "quantitativeReadout"],
 "data": [
  ["Cc1ccc(Cn2c(N3CCC(C(=O)NCc4cccs4)CC3)nc3ccccc32)cc1", 89.1],
  ["Cn1cc([C@@H]2Nc3ccc4[nH]ncc4c3[C@H]3[C@H]4CCC(C4)[C@H]32)c(C(F)(F)F)n1", 35.3],
  ["NS(=O)(=O)c1ccc(CCN=C=S)cc1", 21.8],
  ["Clc1ccc(COc2ccc(Nc3ncnc4onc(-c5ccccc5)c34)cc2)cc1", 84.6],
  ["COc1ccc(OC)c(NC(=O)/C(C#N)=C/c2ccco2)c1", 90.4],
  ["CN1C(=O)N(C)C2(c3ccccc3)OC(=S)NC12c1ccccc1 (stereo not drawn)", 84.7],
  ["O=C1c2cc(Cl)ccc2Oc2cc([N+](=O)[O-])ccc2N1c1ccc(F)cc1F", 59]
]}

I have this compound here, `CCN1CCN(c2cc(C)c3cc(NC(=O)c4ccc(OC)c(OC)c4)ccc3n2)CC1` , and I need its recorded growth.
48.1

---

# Test system: HT29 colon
# protocolText: NCI-60 one-dose screen, 48 h (100 = growth as untreated, 0 = no growth, -100 = all killed)
# reportedConditions: 10 µM unless noted
About 83,000 compounds went through this panel and 20% of them were active in at least one assay; those are over-represented in the sample as a whole.
readoutType: growth (%)
Numbers only here, please. The scale is %.

{"columns": ["compound", "growth (%)"],
 "data": [
  ["COc1cc2c(cc1OC)C(=O)C(CC1CCN(C(=O)Nc3ccc(C)cc3)CC1)C2 (configuration not stated)", 107]
]}

Which measured growth value corresponds to `CN1CCN(Cc2ccc(NC(=O)c3[nH]ncc3Nc3cc(OC4CCCC4)ncn3)cc2)CC1` ?
14.3

Can you handle `O=C(CCc1nnc2sc(Cc3ccccc3Cl)nn12)c1nc2ncccc2[nH]1` next?
104

Now consider `Clc1ccc(Nc2scc3[n+]2CCC3)cc1` .
106

Now this one: `COC(=O)/C(CCC=C(C)C)=C1\[C@@H](OC(C)=O)C[C@@]2(C)[C@H]1C[C@@H](O)[C@H]1[C@@]3(C)CC[C@H](NC(=O)c4cnccn4)[C@@H](C)[C@@H]3CC[C@@]12C`
99

Same question for OC(CNC1CCCCC1)Cn1c2ccc(I)cc2c2cc(I)ccc21 (configuration not stated) please.
95.7

Follow-up entry: `Nc1ccc(-n2c(=O)oc3ccc(Cl)cc3c2=O)c(Cl)c1`
3.86

Moving on to `COc1cc(/C=C2\CCC/C(=C\c3cc(CN4CCCCC4)c(O)c(OC)c3)C2=O)cc(CN2CCCCC2)c1O`
13.3

Then what about the compound `COc1ccc(-c2nocc2-c2cccs2)cc1` ?
114

Cool, now O=C(Cc1ccccc1)NC(c1ccc(Cl)cc1)c1c(O)ccc2ccccc12 (configuration not stated)
12.8

Continue with `O=C1/C(=C/c2ccc(O)cc2)COc2ccc(O)cc21`
98.3

Entry to check: `O=c1nc2sc3nc4ccccc4cc3cc-2s1`
147

---

# System: OVCAR-3 ovarian
# protocolText: NCI-60 one-dose screen, 48 h (100 = growth as untreated, 0 = no growth, -100 = all killed)
# reportedConditions: 10 µM unless noted
Compounds without any hit were thinned out: in the full panel of roughly 83,000, 20% have a hit.
readoutType: growth (%)
Numeric only. Scale: %

{"columns": ["molecule", "quantitativeReadout"],
 "data": [
  ["CN1C(=O)N(C)C2C1NN=c1s/c(=C\\c3ccc(Cl)cc3Cl)c(=O)n12 (centres undefined)", 3.93]
]}

Recorded growth of `O=C(c1ccccc1)N(C(=S)NCCc1ccc(Cl)cc1)c1ccccc1` , please.
98

Next record, please: `O=S1(=O)CCN(Cc2ccccc2)CC1`
105
